Just for reference, patent US8546102B2 is where these values come from.

test-method-notes: NHE1 plasma assay (pH recovery, BCECF/FLIPR) with rabbit plasma
Assay type: cell-based, human
recorded-conditions: male, New Zealand, rabbit, plasma, oral, 0.3 % in chow; rabbits on 0.3% cariporide chow, 1 week; inferred from complete NHE1 block
measure-name: concentration at 1 week

molecule	measure-name	experimental-result
CC(C)c1ccc(C(=O)NC(=N)N)cc1S(C)(=O)=O [cariporide]	concentration at 1 week	≥ 10 µM

###

assayed-system: hNHE1 (Homo sapiens)
Construct: expressed in transfected cells
Sequence (P19634 whole entry): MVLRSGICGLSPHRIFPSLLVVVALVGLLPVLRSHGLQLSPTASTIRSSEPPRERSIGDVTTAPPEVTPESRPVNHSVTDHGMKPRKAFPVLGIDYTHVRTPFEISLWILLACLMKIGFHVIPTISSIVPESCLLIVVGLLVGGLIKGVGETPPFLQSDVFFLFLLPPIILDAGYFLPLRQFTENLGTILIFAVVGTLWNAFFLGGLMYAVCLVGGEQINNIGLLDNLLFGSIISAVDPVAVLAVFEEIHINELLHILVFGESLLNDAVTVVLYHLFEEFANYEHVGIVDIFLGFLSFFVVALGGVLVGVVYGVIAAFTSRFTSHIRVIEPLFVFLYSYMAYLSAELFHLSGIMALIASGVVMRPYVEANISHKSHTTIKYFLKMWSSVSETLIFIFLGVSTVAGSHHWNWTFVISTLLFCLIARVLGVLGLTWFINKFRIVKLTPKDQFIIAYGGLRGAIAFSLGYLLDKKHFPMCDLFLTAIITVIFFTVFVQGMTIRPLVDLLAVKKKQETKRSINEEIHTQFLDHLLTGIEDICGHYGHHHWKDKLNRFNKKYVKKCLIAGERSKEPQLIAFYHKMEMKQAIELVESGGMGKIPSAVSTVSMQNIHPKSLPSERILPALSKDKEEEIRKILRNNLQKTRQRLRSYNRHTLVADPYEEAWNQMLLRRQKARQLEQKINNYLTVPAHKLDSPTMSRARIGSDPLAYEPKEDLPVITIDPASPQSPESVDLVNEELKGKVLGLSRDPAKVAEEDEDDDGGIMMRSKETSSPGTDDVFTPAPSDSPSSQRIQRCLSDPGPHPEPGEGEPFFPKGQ
test-method-notes: Calibration curve of NHE1 activity, compound dilution series in rat plasma
Format: cell-based
recorded-conditions: rat plasma calibration curve; C corresponds to the EC50 (0.662 = 662 nM for compound X); read-out: Fit parameter C of the calibration curve
pEC50: −log10 of the molar value.
measure-name: pEC50

compound	assayed-system	experimental-result
CC(C)c1ccc(C(=O)NC(=N)N)cc1S(C)(=O)=O [cariporide]	hNHE1 (Homo sapiens)	6.72
